Target: NAALADase (UniProt P70627)
Assay: In vitro assay of NAALADase activity ([3H]Glu liberated from [3H]NAAG, synaptosomal protein)
Type: biochemical
Conditions: Table III(a)
Property label: pKi
Numbers only, as −log10 of the molar value.

The reported pKi of the compound O=C(O)CCC(CP(=O)(O)O)C(=O)O (stereo not shown) was 9.56

###

Molecular target: NAALADase (UniProt P70627)
Assay: In vitro assay of NAALADase activity ([3H]Glu liberated from [3H]NAAG, synaptosomal protein)
Type: biochemical
Settings: Table III(c); read-out: Ki Value
Property label: Ki (µM)
Answers are plain numbers, in µM.

compound="O=C(O)CCC(CP(=O)(O)Cc1c(F)c(F)c(F)c(F)c1F)C(=O)O (centres unmarked)" property_label=Ki result=0.038

We next turn to a different compound, shown below.
So, O=C(O)CCC(CP(=O)(O)Cc1ccccc1F)C(=O)O (centres unmarked) ? Its Ki was 0.175

###

Target: UniProtKB P70627
Experiment: In vitro assay of NAALADase activity ([3H]Glu liberated from [3H]NAAG, synaptosomal protein)
Assay type: biochemical
Conditions: text restating Table III(a)
Property label: pKi
Answers are plain numbers, as −log10 of the molar value.

Value of measured pKi for the entry O=C(O)CCC(CP(=O)(O)O)C(=O)O (stereo not shown) : 9.57

Data provenance is patent US6372726B1.
